target: Ba/F3 EGFR L858R/T790M/C797S mutants (Homo sapiens, UniProt P00533, T790M/C797S/L858R, cells depend on it); experiment: CellTiter-Glo cell viability, Ba/F3 EGFR L858R/T790M/C797S cells; assay type: cell-based, murine; settings: 72 hours, read-out: Ba/F3 EGFR mutant cell (IC50, nM) L/T/C
Sequence (P00533 whole entry T790M/C797S/L858R): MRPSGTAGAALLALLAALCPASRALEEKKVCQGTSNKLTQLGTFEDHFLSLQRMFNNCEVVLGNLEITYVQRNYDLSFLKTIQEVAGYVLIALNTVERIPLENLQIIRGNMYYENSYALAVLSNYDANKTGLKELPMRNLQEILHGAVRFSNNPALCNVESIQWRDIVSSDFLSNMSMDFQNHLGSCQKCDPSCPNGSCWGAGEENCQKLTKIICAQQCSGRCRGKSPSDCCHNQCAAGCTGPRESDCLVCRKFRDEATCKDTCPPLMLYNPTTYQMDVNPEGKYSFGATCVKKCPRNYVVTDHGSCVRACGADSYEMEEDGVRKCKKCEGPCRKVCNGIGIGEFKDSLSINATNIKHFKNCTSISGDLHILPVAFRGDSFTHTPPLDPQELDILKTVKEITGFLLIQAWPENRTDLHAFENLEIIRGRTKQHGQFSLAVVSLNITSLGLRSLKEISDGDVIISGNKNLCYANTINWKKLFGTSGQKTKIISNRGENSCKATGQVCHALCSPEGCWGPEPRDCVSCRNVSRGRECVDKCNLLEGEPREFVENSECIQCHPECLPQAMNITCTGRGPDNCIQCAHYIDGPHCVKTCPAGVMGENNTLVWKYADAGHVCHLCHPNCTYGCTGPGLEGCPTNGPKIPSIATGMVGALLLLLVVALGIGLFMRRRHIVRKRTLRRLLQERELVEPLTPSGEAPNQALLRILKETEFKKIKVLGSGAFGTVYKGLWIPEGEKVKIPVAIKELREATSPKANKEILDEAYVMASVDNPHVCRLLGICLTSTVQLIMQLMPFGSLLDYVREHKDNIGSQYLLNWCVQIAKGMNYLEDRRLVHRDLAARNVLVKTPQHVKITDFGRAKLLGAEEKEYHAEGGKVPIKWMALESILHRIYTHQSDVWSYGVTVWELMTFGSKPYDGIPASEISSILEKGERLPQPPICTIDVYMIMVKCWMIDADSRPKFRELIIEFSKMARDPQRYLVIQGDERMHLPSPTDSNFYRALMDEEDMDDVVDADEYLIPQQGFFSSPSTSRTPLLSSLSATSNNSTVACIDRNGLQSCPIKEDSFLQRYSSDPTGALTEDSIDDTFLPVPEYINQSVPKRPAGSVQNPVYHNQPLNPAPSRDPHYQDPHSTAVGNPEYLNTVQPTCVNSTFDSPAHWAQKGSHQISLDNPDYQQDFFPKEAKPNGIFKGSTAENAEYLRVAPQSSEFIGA
Below, each entry is listed with its recorded log10 of GI50.
Record value = log10 of GI50 given in nM.

Here is how some compounds turned out for log10 of GI50.
1. COc1cc(N2CCC(N3CCN(C)CC3)CC2)c(C)cc1Nc1ncc(C)c(Nc2ccc3nccnc3c2NS(C)(=O)=O)n1 ... 2.01
2. COc1cc(N2CCC(N3CCN(C)CC3)CC2)ccc1Nc1ncc(Cl)c(Nc2ccc3nccnc3c2NS(C)(=O)=O)n1 ... 1.99
3. COc1cc(C2CCN(C)CC2)ccc1Nc1ncc(Cl)c(Nc2ccc3nccnc3c2NS(C)(=O)=O)n1 ... 2.55
4. COc1cc(N2CCC(N(C)C)CC2)c(C)cc1Nc1ncc(Br)c(Nc2ccc3nccnc3c2NS(C)(=O)=O)n1 ... 1.45

Challenge: Look at this compound and give its reported log10 of GI50. CCc1cc(Nc2ncc(Br)c(Nc3ccc4nccnc4c3N(C)S(C)(=O)=O)n2)c(OC)cc1N1CC2CCC1CN2C(C)C (stereo not shown)
Response given: 1.85

Challenge: Ok, now COc1cc(C2CCNCC2)c(F)cc1Nc1ncc(Cl)c(Nc2ccc3nccnc3c2NS(C)(=O)=O)n1
Response given: 2.84

Challenge: Ok, now COc1cc(N2CCC(N3CCOCC3)CC2)c(C)cc1Nc1ncc(Cl)c(Nc2ccc3nccnc3c2NS(C)(=O)=O)n1
Response given: 1.63

Challenge: Ok, now CCc1cc(Nc2ncc(F)c(Nc3ccc4nccnc4c3NS(C)(=O)=O)n2)c(OC)cc1N1CCC(N2CCN(C)CC2)CC1
Response given: 1.90

Challenge: Ok, now COc1cc(N2CCNCC2)ccc1Nc1ncc(Cl)c(Nc2ccc3nccnc3c2NS(C)(=O)=O)n1
Response given: 2.92

Challenge: Ok, now COc1cc(N2CCC(N3CCCC3)CC2)c(C)cc1Nc1ncc(Cl)c(Nc2cccc(OC)c2NS(C)(=O)=O)n1
Response given: 1.65

Cited source: patent US12297194B2
